System: Macaca fascicularis
protocol-summary: Volume of distribution at steady state in monkey at 10 mg/kg, iv
setup-conditions: cynomolgus monkey, in vivo, read-out: Vss

compound	unit	Vd
C[C@@H](O)[C@H]1C(=O)N2C(C(=O)O)=C(S[C@H]3C[C@@H](C(=O)N4CC[C@H](NC(=O)CNC(=N)N)C4)N(C)C3)[C@H](C)[C@H]12 [TOMOPENEM]	L/kg	0.172

----------
protocol-summary: AUC (0-inf) in rat at 10 mg/kg, iv
Format: ADME, organism-based
Design: dose 10 mg/kg, route intravenous, time infinity
setup-conditions: plasma
measurement-label: AUC(0-inf) (ng·h/mL)

1. C[C@@H](O)[C@H]1C(=O)N2C(C(=O)O)=C(S[C@H]3C[C@@H](C(=O)N4CC[C@H](NC(=O)CNC(=N)N)C4)N(C)C3)[C@H](C)[C@H]12 10200

----------
protocol-summary: AUC (0-inf) in dog at 10 mg/kg, iv
Type: ADME, organism-based, Canis lupus familiaris
Set-up: dose 10 mg/kg, route intravenous, time infinity
setup-conditions: plasma

molecule	AUC(0-inf) / ng·h/mL
C[C@@H](O)[C@H]1C(=O)N2C(C(=O)O)=C(S[C@H]3C[C@@H](C(=O)N4CC[C@H](NC(=O)CNC(=N)N)C4)N(C)C3)[C@H](C)[C@H]12 [TOMOPENEM]	39900

----------
protocol-summary: Volume of distribution at steady state in rat at 50 mg/kg, iv
Format: ADME, organism-based
Design: dose 50 mg/kg, route intravenous
setup-conditions: in vivo, read-out: Vss
measurement-label: Vd (L/kg)

1) C[C@@H](O)[C@H]1C(=O)N2C(C(=O)O)=C(S[C@H]3C[C@@H](C(=O)N4CC[C@H](NC(=O)CNC(=N)N)C4)N(C)C3)[C@H](C)[C@H]12 0.22

----------
protocol-summary: Volume of distribution at steady state in dog at 5 mg/kg, iv
Assay type: ADME, organism-based, Canis lupus familiaris
Parameters: dose 5 mg/kg, route intravenous
setup-conditions: in vivo, read-out: Vss
measurement-label: Vd

1) C[C@@H](O)[C@H]1C(=O)N2C(C(=O)O)=C(S[C@H]3C[C@@H](C(=O)N4CC[C@H](NC(=O)CNC(=N)N)C4)N(C)C3)[C@H](C)[C@H]12 0.269 L/kg

----------
protocol-summary: AUC (0-inf) in dog at 5 mg/kg, iv
Format: ADME, organism-based, Canis lupus familiaris
Design: time infinity, dose 5 mg/kg, route intravenous
setup-conditions: plasma
measurement-label: AUC(0-inf) (ng·h/mL)

1. C[C@@H](O)[C@H]1C(=O)N2C(C(=O)O)=C(S[C@H]3C[C@@H](C(=O)N4CC[C@H](NC(=O)CNC(=N)N)C4)N(C)C3)[C@H](C)[C@H]12 18800

----------
protocol-summary: Half life in dog at 10 mg/kg, iv
Assay type: ADME, organism-based, Canis lupus familiaris
Set-up: dose 10 mg/kg, route intravenous
setup-conditions: in vivo
measurement-label: half-life

1) C[C@@H](O)[C@H]1C(=O)N2C(C(=O)O)=C(S[C@H]3C[C@@H](C(=O)N4CC[C@H](NC(=O)CNC(=N)N)C4)N(C)C3)[C@H](C)[C@H]12 45 min

----------
protocol-summary: Protein binding in rat serum at 20 ug/ml
Assay type: ADME, cell-free
setup-conditions: read-out: PPB (converted)
measurement-label: fraction unbound at 20 ug/ml

1) C[C@@H](O)[C@H]1C(=O)N2C(C(=O)O)=C(S[C@H]3C[C@@H](C(=O)N4CC[C@H](NC(=O)CNC(=N)N)C4)N(C)C3)[C@H](C)[C@H]12 0.95
